ASSAY PROCEDURE: NCI Yeast Anticancer Drug Screen. Data for the mec2-1 strain (AID 157)
RECORDED CONDITIONS: S. cerevisiae mec2-1 strain, at 50.0 µM
Description: Growth inhibition of yeast strains with defined genetic alterations is measured as a screen for potential anti-cancer activity. Selected strains with alterations in DNA damage repair or cell cycle control were exposed to compounds and growth inhibition was measured relative to vehicle treated controls. The strain used in this assay is mec2-1
This is part of a sample that, as a whole, favours compounds with a hit. Of some 79,000 tested, about 15% had one in any assay. Calls of active or inactive are those of the source. No stated cut-off is given here; in the data, active means growth inhibition above about 70%; inactive means the rest.
Thanks in advance; please answer with one of these: active, inactive

Example entries begin here.
[[record]]
compound = "O=C1C(N=Nc2ccccc2)Sc2nc3ccccc3n21 (configuration not stated)"
group = "inactive"

[[record]]
compound = "Cc1cccc(NC(=O)Oc2cc(C)c(Cl)cc2C(C)C)c1"
group = "active"

[[record]]
compound = "CCCCNc1ncnc2c1cnn2C"
group = "inactive"

[[record]]
compound = "CC1(C)OC2OC(C3CC3)C(O)C2O1 (configuration not stated)"
group = "inactive"

[[record]]
compound = "CCCCCCCCCCCCCCC[N+](C)(C)C"
group = "active"


QUERY: Hi team, can someone confirm the assay call for O=[N+]([O-])c1ccc(N=Nc2ccc(O)c3c(O)cc(S(=O)(=O)O)cc23)cc1S(=O)(=O)O ?
RESULT: inactive

QUERY: What was the test verdict on Cc1cc(SCC(=O)c2ccccc2)nc2ccccc12 ?
RESULT: inactive

QUERY: Short answer needed: outcome of this test for O=C1C(=C(c2ccccc2)N2CCCCC2)C(=O)c2ccccc21 ?
RESULT: inactive

QUERY: Please indicate how the test categorized C1CSCCCSCCSCCCSC1 .
RESULT: inactive

QUERY: What did this assay record as the result for CCc1nc2ccccc2cc1C ?
RESULT: inactive

QUERY: What outcome does the record of this test show for COc1cc(C(=O)O)c(Cc2ccccc2)c(OC)c1O ?
RESULT: inactive

QUERY: Call for entry NCCNC(=O)Cc1cccs1 :
RESULT: inactive

QUERY: // param item: CCCCCCCCCCCCCCCc1cc(OC)ccc1S(=O)(=O)O ; yields the recorded call
RESULT: inactive

QUERY: Entry c1ccc2c(CN3CCCCC3)cccc2c1 : call = ?
RESULT: inactive

QUERY: Assay result, entry N/C(=N\N=C\c1ccccn1)NO — outcome?
RESULT: inactive

QUERY: Recorded test outcome, item CCCCCCCCCCCC(=O)OCC
RESULT: inactive

###

ASSAY PROCEDURE: NCI Yeast Anticancer Drug Screen. Data for the mec2-1 strain (AID 157)
RECORDED CONDITIONS: S. cerevisiae mec2-1 strain, at 50.0 µM, stronger effect = higher value
This is part of a sample that, as a whole, favours compounds with a hit. Of some 79,000 tested, about 15% had one in any assay.
growth inhibition listing for selected molecules.
Please respond with the number in % and leave the unit unwritten.

[[record]]
molecule = "O=C(O)CCCCCCCCCCOc1ccc(Cl)cc1"
val = -7.9

[[record]]
molecule = "Cc1cccc2c1-c1c(C)cccc1C(Cl)S(=O)(=O)C2 (centres undefined)"
val = -4.6

[[record]]
molecule = "CCCCCCCC(=O)OCC(=O)c1ccc(-c2ccccc2)cc1"
val = -1.6


Let's switch to this molecule now.
Looking up CC1CCCN(N=Nc2ccc(Br)cc2-c2nc(N)c3cc(Br)ccc3n2)C1 (centres undefined) , I see its growth inhibition listed as 99.2
